Would you mind telling me the reported Ki of each entry?
targetUnderTest: Cannabinoid receptor 2 (Homo sapiens)
assayText: Displacement of [3H]CP-55940 from human recombinant CB2 receptor expressed in CHO cells
Answer format: numeric, nM implied, no suffix.

Reported Ki of CCCCC1=NN(C(=O)NC(C)(C)c2ccccc2)CC1c1ccccc1 (stereo not given) : 35.6

Per the record, CCCCCC1=NN(C(=O)c2cccc3ccccc23)CC1c1ccccc1 (stereo not given) has Ki of 103

Measured Ki of CCCCCC1=NN(C(=O)NC2CCCCCCC2)CC1c1ccccc1 (stereo not given) : 26.6

Given item CCCCCC1=NN(C(=O)NC(C)(C)c2ccccc2)CC1c1ccccc1 (stereo not given) , the value recorded as its Ki is 17.6

Recorded result, CCCCCC1=NN(C(=O)NC2CCCc3ccccc32)CC1c1ccccc1 (stereo not given) , Ki: 22.5

Sample CCCCCC1=NN(C(=O)NC2C3CC4CC(C3)CC2C4)CC1c1ccccc1 (stereo not given) ; Ki observed: 6.3

Ki reading for CCCCCN1N=C(C(=O)NC(C)(C)c2ccc(F)cc2)CC1c1ccccc1 (stereo not given) : 121

Record CCCCCC1=NN(C(=O)N[C@H]2CC3CC[C@]2(C)C3(C)C)CC1c1ccccc1 (single isomer, unassigned) . Reported Ki: 36

Measured Ki of CCCCCC1=NN(C(=O)NC2CCCCCC2)CC1c1ccccc1 (stereo not given) : 19.8

// field: Ki; key: CCCCCN1N=C(C(=O)N[C@H]2C[C@H]3CC[C@]2(C)C3(C)C)CC1c1ccccc1F (stereo not given in full) ; value = 9.1

* * *

targetUnderTest: Cannabinoid receptor 1 (Homo sapiens)
assayText: Displacement of [3H]CP-55940 from human recombinant CB1 receptor expressed in CHO cells
Kindly state Ki for each of the entries shown.
Answer with the figure and its unit, nothing else.

Summary line: CCCCCN1N=C(C(=O)N[C@H]2C[C@H]3CC[C@]2(C)C3(C)C)CC1c1ccccc1 (some centres undefined) , Cannabinoid receptor 1 (Homo sapiens), reported Ki = 4.7 nM

The recorded Ki with Cannabinoid receptor 1 (Homo sapiens) for CCCCCN1N=C(C(=O)NC2C3CC4CC(C3)CC2C4)CC1c1ccccc1 (centres undefined) was 9.2 nM

Sample CCCCCC1=NN(C(=O)N[C@H]2C[C@H]3CC[C@]2(C)C3(C)C)CC1c1ccccc1 (stereo in doubt; 9) , system: Cannabinoid receptor 1 (Homo sapiens). Its Ki is 28.5 nM

Simply: CCCCCC1=NN(C(=O)NCc2ccccc2)CC1c1ccccc1 (centres undefined) , Cannabinoid receptor 1 (Homo sapiens), Ki = 51 nM

Reported Cannabinoid receptor 1 (Homo sapiens) Ki for item CCCCCC1=NN(C(=O)NC[C@@H]2CC[C@H]3C[C@@H]2C3(C)C)CC1c1ccccc1 (some centres undefined) was 15.6 nM

Param item: CCCCCC1=NN(C(=O)c2cccc3ccccc23)CC1c1ccccc1 (centres undefined) ; param system: Cannabinoid receptor 1 (Homo sapiens); output Ki: 164 nM

# Ki measured on Cannabinoid receptor 1 (Homo sapiens) for item CCCCCC1=NN(C(=O)NC2CCCc3ccccc32)CC1c1ccccc1 (centres undefined) = 33.1 nM

The compound CCCCC1=NN(C(=O)NC(C)(C)c2ccccc2)CC1c1ccccc1 (centres undefined) on Cannabinoid receptor 1 (Homo sapiens): Ki was 14.2 nM

Entry CCCCCC1=NN(C(=O)NCC23CC4CC(CC(C4)C2)C3)CC1c1ccccc1 (centres undefined) , Cannabinoid receptor 1 (Homo sapiens) data, Ki value: 16.1 nM

Form field, Ki with Cannabinoid receptor 1 (Homo sapiens), item CCCCCC1=NN(C(=O)NC2CCCCC2)CC1c1ccccc1 (centres undefined) : 52 nM

// Ki (Cannabinoid receptor 1 (Homo sapiens)) for CCCCCC1=NN(C(=O)Nc2ccccc2C(F)(F)F)CC1c1ccccc1 (centres undefined) = 70 nM

Item: CCCCCC1=NN(C(=O)NC2C3CC4CC(C3)CC2C4)CC1c1ccccc1 (centres undefined) | System: Cannabinoid receptor 1 (Homo sapiens) | Ki: 6.4 nM

Field Ki (system: Cannabinoid receptor 1 (Homo sapiens)) for entry CCCCC1=NN(C(=O)NC(C)(C)c2ccccc2)C(C)(C)C1c1ccccc1 (centres undefined) = 9 nM

Bench note, Cannabinoid receptor 1 (Homo sapiens): entry CCCCC1=NN(C(=O)NC(C)(C)c2ccccc2)CC1c1ccsc1 (centres undefined) , its Ki = 19.3 nM

The compound CCCCC1=NN(C(=O)NC(C)(C)c2ccc(F)cc2)CC1c1cccc(F)c1 (centres undefined) , tested on Cannabinoid receptor 1 (Homo sapiens), showed Ki of 44.9 nM

Log: Cannabinoid receptor 1 (Homo sapiens), compound CCCCCN1N=C(C(=O)N[C@H]2C[C@H]3CC[C@]2(C)C3(C)C)CC1c1ccccc1F (some centres undefined) , Ki = 6.1 nM

For CCCCCC1=NN(C(=O)NCC2CCCCC2)CC1c1ccccc1 (centres undefined) on Cannabinoid receptor 1 (Homo sapiens), measured Ki was 15.3 nM

Cannabinoid receptor 1 (Homo sapiens) Ki of CCCCCC1=NN(C(=O)NC23CC4CC(CC(C4)C2)C3)CC1c1ccccc1 (centres undefined) is 68 nM

Item CCCCCCC(C)(C)c1cc(O)c2c(c1)OC(C)(C)[C@@H]1CCC(=O)C[C@@H]21 was tested on Cannabinoid receptor 1 (Homo sapiens); the reported Ki is 5.1 nM

* * *

targetUnderTest: UniProt P21554
assayText: Displacement of [3H]CP-55940 from human recombinant CB1 receptor expressed in CHO cells
Simple rule here: Ki less than 20 nM is Fulfilled, otherwise Not fulfilled.

Item CCCCCC1=NN(C(=O)NC(C)(C)c2ccccc2)CC1c1ccccc1 (centres undefined) : Ki beneath 20 nM, strictly?
Fulfilled

# check: Ki < 20 nM for CCCCCC1=NN(C(=O)Nc2cccc3ccccc23)CC1c1ccccc1 (centres undefined)
Fulfilled

is_below(Ki, 20 nM) for CCCCC1=NN(C(=O)N[C@H]2C[C@H]3CC[C@]2(C)C3(C)C)C(C)(C)C1c1ccccc1 (some centres undefined) ?
Fulfilled

Check if Ki falls below 20 nM for CCCCCC1=NN(C(=O)NC2CCCCCC2)CC1c1ccccc1 (centres undefined) .
Fulfilled

Just wondering, is Ki of CCCCCN1N=C(C(=O)NC(C)(C)c2ccc(F)cc2)CC1c1ccccc1 (centres undefined) below 20 nM?
Not fulfilled

In the record for CCCCCC1=NN(C(=O)N[C@H]2CC3CC[C@]2(C)C3(C)C)CC1c1ccccc1 (single isomer, unassigned) , is Ki less than 20 nM?
Not fulfilled

Determine if CCCCCC1=NN(C(=O)NC2C[C@H]3CCC2(C)C3(C)C)CC1c1ccccc1 (single isomer, unassigned) shows Ki strictly lower than 20 nM.
Fulfilled

For this compound, is Ki lower than 20 nM? CCCCC1=NN(C(=O)NC(C)(C)c2ccc(F)cc2)CC1c1ccccc1F (centres undefined)
Not fulfilled

hey, is Ki for CCCCCC1=NN(C(=O)NC2CCCCCCC2)CC1c1ccccc1 (centres undefined) lower than 20 nM or not?
Fulfilled

* * *

targetUnderTest: Cannabinoid receptor 2 (Homo sapiens, UniProt P34972)
Sequence (P34972 whole entry): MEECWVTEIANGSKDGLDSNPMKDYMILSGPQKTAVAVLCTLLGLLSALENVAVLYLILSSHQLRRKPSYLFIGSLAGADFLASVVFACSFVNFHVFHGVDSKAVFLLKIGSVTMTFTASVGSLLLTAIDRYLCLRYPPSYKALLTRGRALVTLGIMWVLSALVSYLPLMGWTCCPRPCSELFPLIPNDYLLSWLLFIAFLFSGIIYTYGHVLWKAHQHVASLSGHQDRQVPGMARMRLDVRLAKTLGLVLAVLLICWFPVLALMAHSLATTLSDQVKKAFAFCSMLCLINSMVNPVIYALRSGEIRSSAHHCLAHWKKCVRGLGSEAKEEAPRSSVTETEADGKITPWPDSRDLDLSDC
assayText: Inverse agonist activity at human recombinant CB2 receptor expressed in CHOK1 cells assessed as effect on forskolin-stimulated adenylate cyclase activity by cAMP accumulation assay
outcomeMeasure: EC50
Enter the number, and then the unit.

Measured EC50, CCCCCC1=NN(C(=O)NC2C[C@H]3CCC2(C)C3(C)C)CC1c1ccccc1 (single isomer, unassigned) : 3.16 nM

* * *

targetUnderTest: UniProt P34972
assayText: Displacement of [3H]CP-55940 from human recombinant CB2 receptor expressed in CHO cells
For each entry below, report its Ki value.
The answer is to be given in nM; state only the numeric part.

Field Ki (system: UniProt P34972) for entry CCCCCC1=NN(C(=O)NC[C@@H]2CC[C@H]3C[C@@H]2C3(C)C)CC1c1ccccc1 (stereo not given in full) = 13.3

So the reported Ki for CCCCCN1N=C(C(=O)NC2C3CC4CC(C3)CC2C4)CC1c1ccccc1 (stereo not given) , on UniProt P34972, turned out to be 7.1

So the reported Ki for CCCCCCC(C)(C)c1cc(O)c2c(c1)OC(C)(C)[C@@H]1CCC(=O)C[C@@H]21 [NABILONE] , on UniProt P34972, turned out to be 17.6

Form field, Ki with UniProt P34972, item CCCCCC1=NN(C(=O)NC2CCCCC2)CC1c1ccccc1 (stereo not given) : 79

Reported Ki (UniProt P34972) for entry CCCCCC1=NN(C(=O)NCc2ccccc2)CC1c1ccccc1 (stereo not given) is 260

* * *

targetUnderTest: Cannabinoid receptor 1 (Homo sapiens, UniProt P21554)
Sequence (P21554 whole entry): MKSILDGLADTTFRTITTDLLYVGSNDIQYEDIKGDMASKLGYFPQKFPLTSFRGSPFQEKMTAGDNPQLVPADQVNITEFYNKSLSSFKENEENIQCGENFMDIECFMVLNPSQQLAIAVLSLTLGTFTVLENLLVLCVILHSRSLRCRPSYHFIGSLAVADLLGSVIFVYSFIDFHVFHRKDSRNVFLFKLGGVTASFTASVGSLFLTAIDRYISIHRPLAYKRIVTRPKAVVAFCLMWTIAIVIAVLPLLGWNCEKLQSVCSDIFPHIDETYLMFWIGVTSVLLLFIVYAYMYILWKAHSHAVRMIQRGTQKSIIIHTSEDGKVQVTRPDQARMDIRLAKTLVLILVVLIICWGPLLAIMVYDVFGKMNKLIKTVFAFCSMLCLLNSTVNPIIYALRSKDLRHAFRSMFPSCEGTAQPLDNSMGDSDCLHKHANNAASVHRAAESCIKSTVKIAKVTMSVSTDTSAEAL
assayText: Agonist activity at human recombinant CB1 receptor expressed in CHO cells assessed as effect on CP-55940 induced PLA2 activation by [3H]arachidonic acid release assay
Would you kindly list pEC50 for each of these compounds?
Value format note: pEC50 is -log10 of concentration (mol/L); just state the number.

The observed pEC50 for CCCCC1=NN(C(=O)NC(C)(C)c2ccc(F)cc2)CC1c1ccccc1F (stereo not drawn) when tested with Cannabinoid receptor 1 (Homo sapiens, UniProt P21554) stands at 6.90

Sample CCCCCC1=NN(C(=O)NCc2ccccc2)CC1c1ccccc1 (stereo not drawn) , system: Cannabinoid receptor 1 (Homo sapiens, UniProt P21554). Its pEC50 is 6.40

Short answer on Cannabinoid receptor 1 (Homo sapiens, UniProt P21554) for CCCCCN1N=C(C(=O)N[C@H]2C[C@H]3CC[C@]2(C)C3(C)C)CC1c1ccccc1F (stereo partly drawn) , pEC50: 8.40

Sample CCCCCC1=NN(C(=O)N[C@H]2CC3CC[C@]2(C)C3(C)C)CC1c1ccccc1 (single isomer, unassigned) , system: Cannabinoid receptor 1 (Homo sapiens, UniProt P21554). Its pEC50 is 6.80

Measured pEC50 (Cannabinoid receptor 1 (Homo sapiens, UniProt P21554)), entry CCCCCC1=NN(C(=O)NC2C3CC4CC(C3)CC2C4)CC1c1ccccc1 (stereo not drawn) : 7.60

Note to self: pEC50 of CCCCCN1N=C(C(=O)N[C@H]2C[C@H]3CC[C@]2(C)C3(C)C)CC1c1ccccc1 (stereo partly drawn) with Cannabinoid receptor 1 (Homo sapiens, UniProt P21554) was 8.30

Entry CCCCCC1=NN(C(=O)NC23CC4CC(CC(C4)C2)C3)CC1c1ccccc1 (stereo not drawn) , Cannabinoid receptor 1 (Homo sapiens, UniProt P21554) data, pEC50 value: 6.40

Lab entry: Cannabinoid receptor 1 (Homo sapiens, UniProt P21554) assay, compound CCCCC1=NN(C(=O)NC(C)(C)c2ccccc2)CC1c1ccccc1 (stereo not drawn) , pEC50 = 8.40

So the reported pEC50 for CCCCCC1=NN(C(=O)Nc2cccc3ccccc23)CC1c1ccccc1 (stereo not drawn) , on Cannabinoid receptor 1 (Homo sapiens, UniProt P21554), turned out to be 5.80

GET /values?item= CCCCCC1=NN(C(=O)NC(C)(C)c2ccccc2)CC1c1ccccc1 (stereo not drawn) &system= Cannabinoid receptor 1 (Homo sapiens, UniProt P21554) returns pEC50: 8.40

Form field pEC50 for item CCCCCN1N=C(C(=O)NC(C)(C)c2ccc(F)cc2)CC1c1ccccc1 (stereo not drawn) on Cannabinoid receptor 1 (Homo sapiens, UniProt P21554): 8.40

Entry CCCCCCC(C)(C)c1cc(O)c2c(c1)OC(C)(C)[C@@H]1CCC(=O)C[C@@H]21 ; assay system Cannabinoid receptor 1 (Homo sapiens, UniProt P21554); pEC50 recorded at 8.40

Measured on Cannabinoid receptor 1 (Homo sapiens, UniProt P21554), CCCCC1=NN(C(=O)NC(C)(C)c2ccc(F)cc2)CC1c1cccc(F)c1 (stereo not drawn) has a documented pEC50 of 7.00

Cannabinoid receptor 1 (Homo sapiens, UniProt P21554) assay, compound CCCCCC1=NN(C(=O)N[C@H]2C[C@H]3CC[C@]2(C)C3(C)C)CC1c1ccccc1 (stereo in doubt; 9) , recorded pEC50 = 9.20

The recorded pEC50 with Cannabinoid receptor 1 (Homo sapiens, UniProt P21554) for CCCCCC1=NN(C(=O)NC[C@@H]2CC[C@H]3C[C@@H]2C3(C)C)CC1c1ccccc1 (stereo partly drawn) was 5.70

Field pEC50 (Cannabinoid receptor 1 (Homo sapiens, UniProt P21554)), entry CCCCCC1=NN(C(=O)NC2C[C@H]3CCC2(C)C3(C)C)CC1c1ccccc1 (single isomer, unassigned) : 8.40

Result for CCCCC1=NN(C(=O)NC(C)(C)c2ccccc2)CC1c1ccsc1 (stereo not drawn) , tested on Cannabinoid receptor 1 (Homo sapiens, UniProt P21554), pEC50: 7.40

Entry CCCCCC1=NN(C(=O)c2cccc3ccccc23)CC1c1ccccc1 (stereo not drawn) , tested on Cannabinoid receptor 1 (Homo sapiens, UniProt P21554), has a reported pEC50 of 7.50
